- measured target: T1, Human BCMA (human, UniProt Q02223 1-54, limits assumed)
- T1 construct: Soluble analyte in SPR; construct not described; also called huBCMA; B-cell maturation antigen
- T1 sequence (looked up): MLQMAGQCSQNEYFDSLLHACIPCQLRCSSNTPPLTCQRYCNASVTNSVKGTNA
- assay protocol: SPR, IgG immobilised, 25 C
readout name: koff (s⁻¹)
Give a bare numeral; the unit s⁻¹ is implied.

[[record]]
binder = "L1.GDF/L3.NY/H3.AQ (antibody, V domains shown, IgG) VH: EVQLLESGGGLVQPGGSLRLSCAASGFTFGSYAMTWVRQAPGKGLEWVSAISGSGGNTFYADSVKGRFTISRDNSKNTLYLQMNSLRAEDTAVYYCARVSPIAAQMDYWGQGTLVTVSS VL: EIVLTQSPGTLSLSPGERATLSCRASQSVGDFYLAWYQQKPGQAPRLLIYGASSRATGIPDRFSGSGSGTDFTLTISRLEPEDFAVYYCQHYNYPPSFTFGQGTKVEIK"
readout_name = "koff"
experimental_value = 0.000722


Moving on to the next binder.
## Task // lookup koff for L1.GDF/L3.KW/H3.AQ (antibody, V domains shown, IgG) VH: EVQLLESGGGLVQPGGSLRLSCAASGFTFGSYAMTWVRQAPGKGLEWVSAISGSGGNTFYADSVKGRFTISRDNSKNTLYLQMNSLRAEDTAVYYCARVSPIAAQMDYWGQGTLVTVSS VL: EIVLTQSPGTLSLSPGERATLSCRASQSVGDFYLAWYQQKPGQAPRLLIYGASSRATGIPDRFSGSGSGTDFTLTISRLEPEDFAVYYCKHYGWPPSFTFGQGTKVEIK
## Result 0.00348
